biological target: UniProt Q01726; test: Functional assay for agonist activity at hMC1-R; assay type: cell-based; conditions: intrinsic activity
Sequence (Q01726 whole entry): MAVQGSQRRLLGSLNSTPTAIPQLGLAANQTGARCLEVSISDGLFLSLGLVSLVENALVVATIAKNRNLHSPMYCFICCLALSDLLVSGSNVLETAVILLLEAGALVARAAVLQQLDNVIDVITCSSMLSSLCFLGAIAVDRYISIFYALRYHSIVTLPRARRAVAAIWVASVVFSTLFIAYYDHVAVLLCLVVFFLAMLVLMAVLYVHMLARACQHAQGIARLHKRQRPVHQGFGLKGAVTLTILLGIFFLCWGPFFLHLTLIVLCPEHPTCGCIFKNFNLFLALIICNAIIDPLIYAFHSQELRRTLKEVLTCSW
Peptide text beside a SMILES is read from it.
ATTRIBUTE_MEASURED: Emax (%)
Express your answer in %, writing the number without its unit.

Q: Bench note: what Emax did CC(=O)N[C@H](CCCNC(=N)N)C(=O)N[C@H]1CCCNC(=O)CC[C@@H](C(N)=O)NC(=O)[C@H](Cc2c[nH]c3ccccc23)NC(=O)[C@H](CCCNC(=N)N)NC(=O)[C@@H](Cc2ccccc2)NC(=O)[C@H](CC(N)=O)NC1=O show?
A: 81

Q: Bench note: what Emax did CC(=O)N[C@H](CCCNC(=N)N)C(=O)N[C@H]1CC(=O)NCCCC[C@@H](C(N)=O)NC(=O)[C@H](Cc2c[nH]c3ccccc23)NC(=O)[C@H](CCCNC(=N)N)NC(=O)[C@@H](Cc2ccccc2)NC(=O)[C@H](CCC(N)=O)NC1=O show?
A: 88

Q: Bench note: what Emax did CC(=O)N[C@@H](CCCNC(=N)N)C(=O)N[C@H]1CCCC(=O)NCC[C@@H](C(N)=O)NC(=O)[C@H](Cc2c[nH]c3ccccc23)NC(=O)[C@H](CCCNC(=N)N)NC(=O)[C@@H](Cc2ccccc2)NC(=O)[C@H](CC(N)=O)NC1=O [compound 160] (HELM PEPTIDE1{[ac].R.[O=C([C@H](CCCC(=O)[*:3])N[*:1])[*:2]].N.[dF].R.W.[Dab].[am]}$PEPTIDE1,PEPTIDE1,3:R3-8:R3$$$V2.0) show?
A: 95

----------
target: UniProtKB P32245; assay: Assay for agonist activity (cAMP accumulation in HEK-293 cells); format: cell-based; conditions: HEK293; intrinsic activity; read-out: hMC4-R Emax (%)
Sequence (P32245 whole entry): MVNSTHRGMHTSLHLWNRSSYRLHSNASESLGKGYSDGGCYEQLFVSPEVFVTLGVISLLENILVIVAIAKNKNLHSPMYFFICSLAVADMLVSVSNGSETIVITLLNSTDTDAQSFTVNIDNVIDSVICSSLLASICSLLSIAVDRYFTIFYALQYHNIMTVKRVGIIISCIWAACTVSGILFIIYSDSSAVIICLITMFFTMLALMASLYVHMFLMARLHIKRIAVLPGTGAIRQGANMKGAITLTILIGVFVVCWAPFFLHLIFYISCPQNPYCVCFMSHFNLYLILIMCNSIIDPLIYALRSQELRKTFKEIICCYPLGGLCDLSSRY
Peptide text beside a SMILES is read from it.
ATTRIBUTE_MEASURED: Emax (%)
Express your answer in %, writing the number without its unit.

Q: API: value(readout= Emax, system= UniProtKB P32245, query= CC(=O)N[C@@H](CCCNC(=N)N)C(=O)N[C@H]1CCCCNC(=O)C[C@@H](C(N)=O)NC(=O)[C@H](Cc2ccc3ccccc3c2)NC(=O)[C@H](CCCNC(=N)N)NC(=O)[C@@H](Cc2ccccc2)NC(=O)[C@H](CC(N)=O)NC1=O [compound 162] (HELM PEPTIDE1{[ac].R.K.N.[dF].R.[O=C([C@H](Cc1ccc2ccccc2c1)N[*:1])[*:2]].D.[am]}$PEPTIDE1,PEPTIDE1,3:R3-8:R3$$$V2.0) )
A: 82

Q: API: value(readout= Emax, system= UniProtKB P32245, query= CC(=O)N[C@@H](CCCNC(=N)N)C(=O)N[C@H]1CCNC(=O)CCC[C@@H](C(N)=O)NC(=O)[C@H](Cc2c[nH]c3ccccc23)NC(=O)[C@H](CCCNC(=N)N)NC(=O)[C@@H](Cc2ccccc2)NC(=O)[C@H](CCC(N)=O)NC1=O [compound 159] )
A: 99

Q: API: value(readout= Emax, system= UniProtKB P32245, query= CC(=O)N[C@H](CCCNC(=N)N)C(=O)N[C@H]1CCCNC(=O)CC[C@@H](C(N)=O)NC(=O)[C@H](Cc2c[nH]c3ccccc23)NC(=O)[C@H](CCCNC(=N)N)NC(=O)[C@@H](Cc2ccccc2)NC(=O)[C@H](CCC(N)=O)NC1=O [compound 152] )
A: 89
